B1: EHEE_rd3_0053 (parent)
chain: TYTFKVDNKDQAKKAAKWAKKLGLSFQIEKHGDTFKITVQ

Variants of: B1
Assay: folding stability dG (cDNA display proteolysis); higher = more stable
Conditions: PBS, room temperature
MEASURED_ATTRIBUTE: folding stability dG (kcal/mol)
Write the answer as a number in kcal/mol, unit excluded.

Check out these entries, answers already filled in.
TYTFKVDNKDQAKKAAKWAKKLGLSFQIEKHIDTFKITVQ    1.21
TYTFKVDNKDQAGKAAKWAKKLGLSFQIEKHGDTFKITVQ    1.72
TYTFKVDNKDQAKKAAKRAKKLGLSFQIEKHGDTFKITVQ    1.5
TYTFKVHNKDQAKKAAKWAKKLGLSFQIEKHGDTFKITVQ    2.58
TYTFKVDNKDQAKKAAKWAKKLGLSFQIEKHGDTFKITVN    2.4
TYTFKVDNKDQAKKAAKWAKKLGLSFQIEKHGDTFNITVQ    2.16
TYTFKVDNKDQAKKAAKWAKKLGLSFQIEKHGDTFKITYQ    1.68
TYTFKVDNKDQAKKAAKWAKKLGLSFQIEDHGDTFKITVQ    1.84

The recorded folding stability dG for entry `TYTFKVDNKDQAKKAAKWAPKLGLSFQIEKHGDTFKITVQ` equals -0.72

The recorded folding stability dG for entry `TYTFLVDNKDQAKKAAKWAKKLGLSFQIEKHGDTFKITVQ` equals 3.2

The recorded folding stability dG for entry `TYTFKVDNKDQAKKAAKWAKKLGLSFQIWKHGDTFKITVQ` equals 2
